EXPERIMENTAL_SYSTEM: SUDV GP [change] (Sudan ebolavirus) (UniProt Q7T9D9)
VALUE_TYPE: EC50 (µg/mL)
Report only the number, with the unit µg/mL understood.

BINDER: EBOV-518 (antibody, V domains shown) VH: QVTLKESGPTLVKPTQTLTLTCTFSGFSMNSSGMSVTWIRQPPGKALECLALIYWDDDKWYGPSLETRVTITKDASKNQVVLTMTNMDPVDTATYYCAHSGGLVAGAFDYWGQGTLVTVSS VL: EIVMTQSPDSLTVSLGERATINCRSSQSVLYRVNSKNYLAWYQQKAGQTPKLIINWASTRESGVPDRFSGSGSGTDFTLTISSLQAEDVAVYYCQQYYNSPRTFGQGTKVEIK
OBSERVED: 0.352

So for EBOV-520 (antibody, V domains shown) VH: QVQLQESGPGLGKPSETLSLSCTVSGASIRGYFWNWIRQPPGKGLEWIGYIHSTGSTNYNPSLKSRVTISVDTSKNQVSLNVNSVTAADTAVYFCARGAWNVATVYYYYGMDVWGQGTLVTVSS VL: EIVLTQSPGTLSLSPGERATLSCRASQSVSSSYFAWYQQKPGQAPRLLISGTSTRAPGIPDRFSGSGSGTDFTLTISRLEPEDFAVYFCQQYGNSLYTFGQGTKLEIK , the logged EC50 turned out to be 0.136
